Data provenance: patent US8536354B2

# testSystem: UniProtKB P49880
# Sequence (P49880 405-776 limits assumed): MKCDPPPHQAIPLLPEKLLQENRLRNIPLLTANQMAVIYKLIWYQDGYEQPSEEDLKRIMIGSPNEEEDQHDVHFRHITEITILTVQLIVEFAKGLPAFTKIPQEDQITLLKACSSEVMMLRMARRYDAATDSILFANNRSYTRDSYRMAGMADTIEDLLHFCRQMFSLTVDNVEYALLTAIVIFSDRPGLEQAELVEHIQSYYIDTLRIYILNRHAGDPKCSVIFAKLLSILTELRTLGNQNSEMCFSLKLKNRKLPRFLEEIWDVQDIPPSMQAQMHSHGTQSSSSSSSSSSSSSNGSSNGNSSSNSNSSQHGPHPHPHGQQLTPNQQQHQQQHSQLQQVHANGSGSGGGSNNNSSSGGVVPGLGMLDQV
# procedureText: Two-hybrid gene switch assay, AaEcR-DEF in NIH3T3 cells
# conditionContext: AaEcR; max fold induction at any concentration relative to 20E
Listing of recorded rel max FI (20E), AA by entry.

Sample answers from the record:
INSERT INTO assay_data (compound, observedresult) VALUES
  ('CO[C@H]1C[C@@]2(C)[C@@H](C[C@H]1O)C(=O)C=C1[C@@H]2CC[C@]2(C)[C@@H]([C@@](C)(O)[C@H](O)CCC(C)(C)O)CC[C@@]12O [20E-2-methyl ether]', 0.87),
  ('CO[C@H]1C[C@@]2(C)[C@@H](C[C@H]1O)C(=O)C=C1[C@@H]2CC[C@]2(C)[C@@H]([C@@](C)(O)[C@@H](CCC(C)(C)O)OC)CC[C@@]12O [20E-2,22-dimethyl ether]', 2.34);

Attention now turns to another entry.
Query: Form field - read-out: rel max FI (20E), AA; system: UniProtKB P49880; submitted item: CO[C@H](CCC(C)(C)O)[C@](C)(O)C1CC[C@@]2(O)C3=CC(=O)C4C[C@@H](O)[C@@H](O)CC4(C)C3CCC12C (stereo partly drawn) [20E-22-methyl ether]
Result: 2.52

---

# testSystem: wild-type Drosophila melanogaster EcR (DmEcR; GAL4-EcR DEF with VP16-RXR-USP chimera) (Drosophila melanogaster, UniProt P34021)
# Sequence (P34021 with tags, fused parts or gaps limits assumed): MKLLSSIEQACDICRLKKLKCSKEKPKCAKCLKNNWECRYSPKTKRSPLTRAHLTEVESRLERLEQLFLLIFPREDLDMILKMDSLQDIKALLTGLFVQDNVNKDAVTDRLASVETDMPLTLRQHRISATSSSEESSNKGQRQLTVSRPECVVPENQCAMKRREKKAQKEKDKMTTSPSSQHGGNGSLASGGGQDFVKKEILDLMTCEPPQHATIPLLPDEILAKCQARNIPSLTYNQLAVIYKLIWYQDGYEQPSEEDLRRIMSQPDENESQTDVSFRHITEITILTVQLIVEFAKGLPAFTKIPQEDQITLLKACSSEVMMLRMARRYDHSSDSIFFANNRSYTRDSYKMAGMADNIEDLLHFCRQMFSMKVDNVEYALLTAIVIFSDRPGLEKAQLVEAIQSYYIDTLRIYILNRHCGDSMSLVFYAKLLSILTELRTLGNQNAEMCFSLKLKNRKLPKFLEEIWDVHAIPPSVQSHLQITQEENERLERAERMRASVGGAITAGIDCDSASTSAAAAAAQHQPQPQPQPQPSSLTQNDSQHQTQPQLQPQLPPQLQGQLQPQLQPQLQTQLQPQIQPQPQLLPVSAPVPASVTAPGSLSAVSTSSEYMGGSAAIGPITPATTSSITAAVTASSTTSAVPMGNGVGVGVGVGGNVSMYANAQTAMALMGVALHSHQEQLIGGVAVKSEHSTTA
# procedureText: Two-hybrid gene switch assay, luciferase reporter, wild-type DmEcR, mouse NIH3T3 cells
# Assay type: cell-based
# conditionContext: FIG. 16, GAL4-EcR (DEF) / VP16-RXR-USP chimera, read-out: EC50
quantityKind: EC50

Query: What does the record list as EC50 for CC(C)(O)CC[C@@H](O)[C@](C)(O)[C@H]1CC[C@@]2(O)C3=CC(=O)[C@@H]4C[C@@H](O)[C@@H](O)C[C@]4(C)[C@H]3CC[C@]12C [Compound 20-hydroxyecdysone] ?
Result: ~15 µM

---

# testSystem: UniProt O44338
# Sequence (O44338 291-570): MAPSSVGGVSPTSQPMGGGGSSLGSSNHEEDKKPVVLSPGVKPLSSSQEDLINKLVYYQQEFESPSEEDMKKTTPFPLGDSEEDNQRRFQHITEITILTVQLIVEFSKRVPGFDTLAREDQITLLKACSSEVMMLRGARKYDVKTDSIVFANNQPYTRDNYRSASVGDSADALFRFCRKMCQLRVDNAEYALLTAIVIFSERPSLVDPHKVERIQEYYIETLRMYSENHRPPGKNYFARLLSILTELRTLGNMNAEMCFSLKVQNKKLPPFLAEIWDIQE
# Sequence (P28702 299-449 partner): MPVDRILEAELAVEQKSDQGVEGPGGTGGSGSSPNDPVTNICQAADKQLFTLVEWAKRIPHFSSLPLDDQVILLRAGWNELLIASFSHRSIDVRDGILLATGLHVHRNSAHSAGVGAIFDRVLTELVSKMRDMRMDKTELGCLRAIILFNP
# procedureText: Two-hybrid gene switch assay, AmaEcR-DEF in NIH3T3 cells
# conditionContext: NIH3T3, 48 h, read-out: rel max FI (20E), AMA
Listing of recorded Emax by entry.
A number alone suffices; assume %.

Sample answers from the record:
INSERT INTO assay_data (molecule, quantitykind, observedresult) VALUES
  ('CO[C@H](CCC(C)(C)O)[C@](C)(O)C1CC[C@@]2(O)C3=CC(=O)C4C[C@@H](O)[C@@H](O)CC4(C)C3CCC12C (stereo partly drawn) [20E-22-methyl ether]', 'Emax', 108),
  ('CO[C@H]1C[C@@]2(C)[C@@H](C[C@H]1O)C(=O)C=C1[C@@H]2CC[C@]2(C)[C@@H]([C@@](C)(O)[C@@H](CCC(C)(C)O)OC)CC[C@@]12O [20E-2,22-dimethyl ether]', 'Emax', 94);

Query: What does the record list as Emax for CO[C@@H]1C[C@H]2C(=O)C=C3[C@H](CC[C@]4(C)[C@@H]([C@@](C)(O)[C@H](O)CCC(C)(C)O)CC[C@@]34O)[C@@]2(C)C[C@@H]1O [20E-3-methyl ether] ?
Result: 91

---

Listing of recorded pEC50 by entry.
# testSystem: TmEcR (GAL4-EcR DEF with VP16-RXR partner) (Tenebrio molitor)
# Sequence (O02035 194-491): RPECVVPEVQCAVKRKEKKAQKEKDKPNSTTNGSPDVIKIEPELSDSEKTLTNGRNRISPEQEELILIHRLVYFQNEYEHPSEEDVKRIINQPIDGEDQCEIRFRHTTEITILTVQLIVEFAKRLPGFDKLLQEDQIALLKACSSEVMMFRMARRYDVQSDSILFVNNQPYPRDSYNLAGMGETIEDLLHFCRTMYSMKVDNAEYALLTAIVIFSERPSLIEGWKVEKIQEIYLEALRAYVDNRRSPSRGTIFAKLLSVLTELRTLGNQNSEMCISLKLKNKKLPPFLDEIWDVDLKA
# Sequence (P28704 whole entry partner, the tested form may be a part): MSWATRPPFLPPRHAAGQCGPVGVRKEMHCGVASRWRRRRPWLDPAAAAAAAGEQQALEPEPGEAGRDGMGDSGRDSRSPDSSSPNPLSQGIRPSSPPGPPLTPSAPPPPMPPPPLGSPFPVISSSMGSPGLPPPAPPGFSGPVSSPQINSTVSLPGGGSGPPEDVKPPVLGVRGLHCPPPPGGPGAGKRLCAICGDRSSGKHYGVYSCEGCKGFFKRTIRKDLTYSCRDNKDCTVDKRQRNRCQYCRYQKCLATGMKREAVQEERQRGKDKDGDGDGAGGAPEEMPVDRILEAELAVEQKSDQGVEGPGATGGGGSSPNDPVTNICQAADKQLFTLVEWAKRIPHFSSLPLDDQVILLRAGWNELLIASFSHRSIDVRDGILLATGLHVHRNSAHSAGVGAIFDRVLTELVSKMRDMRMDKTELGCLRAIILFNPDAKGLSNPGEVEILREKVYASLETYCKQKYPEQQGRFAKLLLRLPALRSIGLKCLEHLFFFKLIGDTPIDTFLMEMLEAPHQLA
# procedureText: Two-hybrid gene switch assay, luciferase reporter, TmEcR, mouse NIH3T3 cells
# conditionContext: EC50, FIG. 14A/14B, GAL4-EcR(DEF)
pEC50: −log10 of the molar value.

INSERT INTO results (compound, quantitykind, observedresult) VALUES
  ('CC(C)(O)CC[C@@H](O)[C@](C)(O)[C@H]1CC[C@@]2(O)C3=C[C@H](O)[C@@H]4C[C@@H](O)[C@@H](O)C[C@]4(C)[C@H]3CC[C@]12C [Compound 6a-hydroxy-20-hydroxyecdysone]', 'pEC50', '< 4.48'),
  ('CC(C)(O)CCCC(C)(O)C1CCC2(O)C3=CC(=O)C4CC(O)C(O)CC4(C)C3CCC12C (stereo not shown)', 'pEC50', '~4.70');

Query: Form field - read-out: pEC50; system: TmEcR (GAL4-EcR DEF with VP16-RXR partner) (Tenebrio molitor); submitted item: CCCCCCCCCC(=O)OC1CC2(C)C(C(C)(O)C(O)CCC(C)(C)O)CCC2(O)C2=CC(=O)C3CC(O)C(O)CC3(C)C21 (stereo not shown) [turkesterone-11a-decanoate]
Result: < 4.48

Query: Form field - read-out: pEC50; system: TmEcR (GAL4-EcR DEF with VP16-RXR partner) (Tenebrio molitor); submitted item: CCC(=O)OC1CC2(C)C(C(C)(O)C(O)CCC(C)(C)O)CCC2(O)C2=CC(=O)C3CC(O)C(O)CC3(C)C21 (stereo not shown) [turkesterone-11 a -propionate]
Result: < 4.48

Query: Form field - read-out: pEC50; system: TmEcR (GAL4-EcR DEF with VP16-RXR partner) (Tenebrio molitor); submitted item: CC(=O)OCC(=O)O[C@H](CCC(C)(C)O)[C@](C)(O)[C@H]1CC[C@@]2(O)C3=CC(=O)[C@@H]4C[C@@H](O)[C@@H](O)C[C@]4(C)[C@H]3CC[C@]12C [20-hydroxyecdysone 22-acetoxyacetate]
Result: ~5.00

Query: Form field - read-out: pEC50; system: TmEcR (GAL4-EcR DEF with VP16-RXR partner) (Tenebrio molitor); submitted item: CC(C)(O)CC[C@@H](O)[C@](C)(O)[C@H]1CC[C@@]2(O)C3=CC(=O)[C@@H]4C[C@@H](O)[C@@H](O)C[C@]4(C)[C@H]3CC[C@]12C [Compound 20-hydroxyecdysone]
Result: ~4.82

Query: Form field - read-out: pEC50; system: TmEcR (GAL4-EcR DEF with VP16-RXR partner) (Tenebrio molitor); submitted item: CC(C)(O)CC[C@@H](O)[C@](C)(O)[C@H]1CC[C@@]2(O)C3=CC(=O)[C@H]4C[C@@H](O)[C@@H](O)C[C@]4(C)[C@H]3CC[C@]12C [(5a-H)-20-hydroxyecdysone]
Result: < 4.48

Query: Form field - read-out: pEC50; system: TmEcR (GAL4-EcR DEF with VP16-RXR partner) (Tenebrio molitor); submitted item: CC(C(O)CCC(C)(C)O)C1CCC2(O)C3=CC(=O)C4CC(O)CCC4(C)C3CCC12C (stereo not shown)
Result: < 4.48

Query: Form field - read-out: pEC50; system: TmEcR (GAL4-EcR DEF with VP16-RXR partner) (Tenebrio molitor); submitted item: CC(C)(O)CC[C@H]1OC(C)(C)O[C@]1(C)[C@H]1CC[C@@]2(O)C3=CC(=O)[C@@H]4C[C@@H](O)[C@@H](O)C[C@]4(C)[C@H]3CC[C@]12C [20-hydroxyecdysone-20,22-acetonide]
Result: < 4.48

Query: Form field - read-out: pEC50; system: TmEcR (GAL4-EcR DEF with VP16-RXR partner) (Tenebrio molitor); submitted item: CC(C)=CC[C@@H](O)[C@](C)(O)[C@H]1CC[C@@]2(O)C3=CC(=O)[C@@H]4C[C@@H](O)[C@@H](O)C[C@]4(C)[C@H]3CC[C@]12C
Result: 5.83
